system: NCI-H647; assay: relative viability (nuclei count vs DMSO), 5 days (fraction); higher = more cells survive; settings: first compound 0.02 µM
readout type: relative viability
Please respond with just the number, no unit label.

// below: answered molecules
{"columns": ["molecule", "relative viability"],
 "data": [
  ["CC(=O)O[C@@]12CO[C@@H]1C[C@H](O)[C@@]1(C)C(=O)[C@H](O)C3=C(C)[C@@H](OC(=O)[C@H](O)[C@@H](NC(=O)OC(C)(C)C)c4ccccc4)C[C@@](O)([C@@H](OC(=O)c4ccccc4)[C@H]21)C3(C)C [Docetaxel] + Cc1nc(NC(=O)N2CCC[C@H]2C(N)=O)sc1-c1ccnc(C(C)(C)C(F)(F)F)c1 [Alpelisib] (partner 2 µM)", 0.0507],
  ["CC(=O)O[C@@]12CO[C@@H]1C[C@H](O)[C@@]1(C)C(=O)[C@H](O)C3=C(C)[C@@H](OC(=O)[C@H](O)[C@@H](NC(=O)OC(C)(C)C)c4ccccc4)C[C@@](O)([C@@H](OC(=O)c4ccccc4)[C@H]21)C3(C)C [Docetaxel] + Nc1ncn([C@H]2C[C@H](O)[C@@H](CO)O2)c(=O)n1 [Decitabine] (partner 2 µM)", 0.109],
  ["CC(=O)O[C@@]12CO[C@@H]1C[C@H](O)[C@@]1(C)C(=O)[C@H](O)C3=C(C)[C@@H](OC(=O)[C@H](O)[C@@H](NC(=O)OC(C)(C)C)c4ccccc4)C[C@@](O)([C@@H](OC(=O)c4ccccc4)[C@H]21)C3(C)C [Docetaxel] + C[C@@H](Oc1cc(-c2cnn(C3CCNCC3)c2)cnc1N)c1c(Cl)ccc(F)c1Cl [Crizotinib] (partner 1 µM)", 0.1]
]}

Turning now to a further record.
-- ask Please tell me: relative viability of CC(=O)O[C@@]12CO[C@@H]1C[C@H](O)[C@@]1(C)C(=O)[C@H](O)C3=C(C)[C@@H](OC(=O)[C@H](O)[C@@H](NC(=O)OC(C)(C)C)c4ccccc4)C[C@@](O)([C@@H](OC(=O)c4ccccc4)[C@H]21)C3(C)C [Docetaxel] + CS(=O)(=O)CCNCc1ccc(-c2ccc3ncnc(Nc4ccc(OCc5cccc(F)c5)c(Cl)c4)c3c2)o1 [Lapatinib] (partner 2 µM) , system NCI-H647?
-- reply 0.0858
